System: Candida albicans
ASSAY_NOTES: Antifungal activity against Candida albicans ATCC 66027 by microbroth dilution method
Assay type: functional
RESULT_TYPE: MIC (µg/mL)

CCC(C)n1ncn(-c2ccc(N3CCN(c4ccc(OCC5COC(Cn6cncn6)(c6ccc(Cl)cc6Cl)O5)cc4)CC3)cc2)c1=O (configuration not stated)	1.56

I: CC(=O)Nc1ccc(NC(=S)NNC(=O)c2ccncc2)cc1
II: O=C(NNC(=S)Nc1cccc(Cl)c1)c1ccncc1
Input: Please indicate which entry, I or II , has the lower recorded MIC value. Please respond with the label that marks your chosen entry.
Output: II
(II: 0.19 µg/mL, I: 0.39 µg/mL)

###

System: Candida
ASSAY_NOTES: Antifungal activity against Candida sp. clinical isolate 13184 derived from high vaginal swabs by microbroth dilution method
Assay type: functional
RESULT_TYPE: MIC (µg/mL)

O=C(NNC(=S)Nc1cccc(Cl)c1)c1ccncc1	6.25
O=C(NNC(=S)Nc1ccccc1[N+](=O)[O-])c1ccncc1	0.78

P: O=C(NNC(=S)Nc1ccc(I)cc1)c1ccncc1
Q: O=C(NNC(=S)Nc1ccc(Cl)cc1)c1ccncc1
R: CCC(C)n1ncn(-c2ccc(N3CCN(c4ccc(OCC5COC(Cn6cncn6)(c6ccc(Cl)cc6Cl)O5)cc4)CC3)cc2)c1=O (stereo unspecified) [ITRACONAZOLE]
S: Cc1cccc(C)c1NC(=S)NNC(=O)c1ccncc1
Input: Please list the entries, largest MIC first. Answer format: the labels, in the requested order.
Output: S, P, Q, R
(S: 6.25 µg/mL, P: 1.6 µg/mL, Q: 0.78 µg/mL, R: 0.39 µg/mL)

###

Tested on: Candida
ASSAY_NOTES: Antifungal activity against Candida sp. clinical isolate 178 derived from high vaginal swabs by microbroth dilution method
Assay type: functional
MIC values, listed per item

# annotated cases, reported MIC shown
O=C(NNC(=S)Nc1ccc(Cl)cc1)c1ccncc1	0.19 µg/mL
Cc1ccc(NC(=S)NNC(=O)c2ccncc2)cc1	> 50 µg/mL
O=C(NNC(=S)Nc1ccc(I)cc1)c1ccncc1	0.09 µg/mL
O=C(NNC(=S)Nc1ccc(S(=O)(=O)Nc2ncccn2)cc1)c1ccncc1	> 50 µg/mL
O=C(NNC(=S)NC1CCCCC1)c1ccncc1	> 50 µg/mL

Input: What does the record list as MIC for O=C(NNC(=S)Nc1ccccc1)c1ccncc1 ?
Output: 6.25 µg/mL

Input: And the next one, O=C(NNC(=S)Nc1ccc([N+](=O)[O-])cc1)c1ccncc1 ?
Output: > 50 µg/mL

Input: Try this compound too: CCOc1ccc(NC(=S)NNC(=O)c2ccncc2)cc1
Output: > 50 µg/mL

###

System: Candida albicans
ASSAY_NOTES: Antifungal activity against Candida albicans ATCC 66027 by microbroth dilution method
Assay type: functional
RESULT_TYPE: MIC (µg/mL)

O=C(NNC(=S)Nc1ccccc1[N+](=O)[O-])c1ccncc1	1.6
O=C(NNC(=S)Nc1ccccc1)c1ccncc1	0.19
O=C(NNC(=S)Nc1ccc(Cl)cc1)c1ccncc1	0.09

A: O=C(NNC(=S)Nc1ccc(I)cc1)c1ccncc1
B: Cc1cccc(C)c1NC(=S)NNC(=O)c1ccncc1
Input: A or B : whose MIC is greater? # answer = label of selected item
Output: B

###

Tested on: Candida
ASSAY_NOTES: Antifungal activity against Candida sp. clinical isolate 13184 derived from high vaginal swabs by microbroth dilution method
Assay type: functional
Examples of molecules with documented MIC follow.

O=C(NNC(=S)Nc1ccc([N+](=O)[O-])cc1)c1ccncc1	> 50 µg/mL
Cc1cccc(NC(=S)NNC(=O)c2ccncc2)c1	> 50 µg/mL
Cc1ccccc1N=C(S)NNC(=O)c1ccncc1	> 50 µg/mL

Input: Query (molecule): Cc1ccc(NC(=S)NNC(=O)c2ccncc2)cc1 ; field requested: MIC
Output: > 50 µg/mL

Input: Item: CCc1cccc(NC(=S)NNC(=O)c2ccncc2)c1
Output: > 50 µg/mL

Input: Also COc1ccccc1N=C(S)NNC(=O)c1ccncc1 ?
Output: > 50 µg/mL

Input: What would you report for O=C(NNC(=S)Nc1ccccc1)c1ccncc1 ?
Output: 12.5 µg/mL

Input: Also CC(=O)Nc1ccc(NC(=S)NNC(=O)c2ccncc2)cc1 ?
Output: 1.6 µg/mL
